# MEASUREMENT_TARGET: Protein smoothened (Mus musculus, UniProt P56726)
# Sequence (P56726 whole entry): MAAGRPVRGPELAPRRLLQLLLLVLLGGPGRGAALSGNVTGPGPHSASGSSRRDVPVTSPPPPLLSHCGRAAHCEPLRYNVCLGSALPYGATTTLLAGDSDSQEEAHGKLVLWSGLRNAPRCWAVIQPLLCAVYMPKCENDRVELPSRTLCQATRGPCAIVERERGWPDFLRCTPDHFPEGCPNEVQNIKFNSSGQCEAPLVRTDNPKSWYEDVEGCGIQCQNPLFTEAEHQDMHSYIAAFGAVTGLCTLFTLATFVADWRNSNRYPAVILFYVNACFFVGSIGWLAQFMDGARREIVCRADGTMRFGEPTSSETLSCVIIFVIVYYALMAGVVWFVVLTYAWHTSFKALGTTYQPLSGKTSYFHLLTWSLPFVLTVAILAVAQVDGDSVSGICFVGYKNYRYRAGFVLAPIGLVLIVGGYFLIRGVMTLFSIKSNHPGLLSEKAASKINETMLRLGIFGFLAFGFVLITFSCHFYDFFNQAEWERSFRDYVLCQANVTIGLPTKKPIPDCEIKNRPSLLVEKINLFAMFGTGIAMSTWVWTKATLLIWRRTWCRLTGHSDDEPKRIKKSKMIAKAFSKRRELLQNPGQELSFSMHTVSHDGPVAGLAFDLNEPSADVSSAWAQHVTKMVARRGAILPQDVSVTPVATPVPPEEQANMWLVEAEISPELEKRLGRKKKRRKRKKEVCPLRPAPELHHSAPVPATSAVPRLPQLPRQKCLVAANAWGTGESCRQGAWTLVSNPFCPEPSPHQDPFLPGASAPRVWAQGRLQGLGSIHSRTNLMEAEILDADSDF
# EXPERIMENT_DESCRIPTION: Antagonist activity at Smo receptor in mouse NIH/3T3 cells harboring GRE-Luc assessed as inhibition of SAG-induced Hh signaling pathway co-incubated with SAG measured after 48 hrs by luciferase reporter gene assay
Measured IC50 values are reported for all entries that follow.

O=C(Nc1cccc(N2CCCN(Cc3ccc(F)c(F)c3)C2=O)c1)OCc1ccccc1 | 1200 nM

// query IC50 value for entry Cc1ccc(NCc2cccn2-c2nnc(N3CCC(C(=O)N4CCCC4)CC3)s2)cc1 4300 nM

// query IC50 value for entry CCn1cc(C(=O)O)c(=O)c2cc(F)c(N3CCN(C(=S)NC(=O)Cc4ccc(Cl)cc4)CC3)cc21 > 10000 nM

// query IC50 value for entry Cc1ccc(NCc2cccn2-c2nnc(N3CCC(C(=O)NC4CCCCC4C)CC3)s2)nc1 (stereo not given) 58 nM

// query IC50 value for entry CN(C(=O)Cn1c(=O)n(CCCC(=O)NCc2ccccc2)c(=O)c2sccc21)c1ccccc1 > 10000 nM
